System: PPARa:RXRa (NR concentration 270 nM, RXRa partner concentration 90 nM)
assay-method-text: PBM binding z-score (relative to random genomic background probes); higher = stronger binding; sequences stand for … in GC…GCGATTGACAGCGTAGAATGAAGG
Decide by PBM binding z-score: equal to or exceeding 2 means TRUE, less means FALSE.

Does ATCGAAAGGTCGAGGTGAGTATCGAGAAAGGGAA have a reported PBM binding z-score of at least 2?
TRUE

Does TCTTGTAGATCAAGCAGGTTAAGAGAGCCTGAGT have a reported PBM binding z-score of at least 2?
FALSE

Does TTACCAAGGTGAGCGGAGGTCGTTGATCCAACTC have a reported PBM binding z-score of at least 2?
FALSE

Does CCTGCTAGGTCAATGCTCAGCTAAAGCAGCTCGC have a reported PBM binding z-score of at least 2?
TRUE

Does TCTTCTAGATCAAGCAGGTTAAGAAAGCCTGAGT have a reported PBM binding z-score of at least 2?
FALSE

Does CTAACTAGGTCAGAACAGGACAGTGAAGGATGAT have a reported PBM binding z-score of at least 2?
TRUE

Does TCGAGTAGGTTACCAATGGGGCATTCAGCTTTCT have a reported PBM binding z-score of at least 2?
FALSE

Does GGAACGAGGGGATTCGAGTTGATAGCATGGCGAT have a reported PBM binding z-score of at least 2?
FALSE

Does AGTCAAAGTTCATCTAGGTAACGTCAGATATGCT have a reported PBM binding z-score of at least 2?
TRUE

Does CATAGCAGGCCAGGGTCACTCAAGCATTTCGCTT have a reported PBM binding z-score of at least 2?
TRUE

Does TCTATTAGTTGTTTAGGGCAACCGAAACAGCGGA have a reported PBM binding z-score of at least 2?
FALSE

Does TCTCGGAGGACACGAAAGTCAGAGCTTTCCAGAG have a reported PBM binding z-score of at least 2?
FALSE

---

Tested on: PPARg DBDmut:RXRa IVT, anti-PPARg (DBD mutation: PPARg1 K132A/R137A, NR concentration 270 nM, RXRa partner concentration 90 nM)
assay-method-text: PBM binding z-score (relative to random genomic background probes); higher = stronger binding; sequences stand for … in GC…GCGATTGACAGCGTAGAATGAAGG
property-measured: PBM binding z-score
I only need the number, thanks.

Find the recorded PBM binding z-score belonging to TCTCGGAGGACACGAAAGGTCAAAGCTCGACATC and report it.
-0.166

Find the recorded PBM binding z-score belonging to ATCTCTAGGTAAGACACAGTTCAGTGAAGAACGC and report it.
1.21

Find the recorded PBM binding z-score belonging to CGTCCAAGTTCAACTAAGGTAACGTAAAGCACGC and report it.
0.262

Find the recorded PBM binding z-score belonging to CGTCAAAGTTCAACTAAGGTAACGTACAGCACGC and report it.
0.979

Find the recorded PBM binding z-score belonging to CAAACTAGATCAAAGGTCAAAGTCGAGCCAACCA and report it.
1.17

Find the recorded PBM binding z-score belonging to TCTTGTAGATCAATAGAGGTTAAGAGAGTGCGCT and report it.
0.505

Find the recorded PBM binding z-score belonging to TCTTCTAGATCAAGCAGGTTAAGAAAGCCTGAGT and report it.
0.767

Find the recorded PBM binding z-score belonging to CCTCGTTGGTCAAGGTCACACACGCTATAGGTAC and report it.
1.08

Find the recorded PBM binding z-score belonging to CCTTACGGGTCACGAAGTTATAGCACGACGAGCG and report it.
0.631

Find the recorded PBM binding z-score belonging to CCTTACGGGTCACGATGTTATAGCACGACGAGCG and report it.
0.952

Find the recorded PBM binding z-score belonging to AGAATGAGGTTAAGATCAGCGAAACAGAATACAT and report it.
1.19

Find the recorded PBM binding z-score belonging to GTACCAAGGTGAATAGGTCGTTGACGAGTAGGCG and report it.
0.144

Find the recorded PBM binding z-score belonging to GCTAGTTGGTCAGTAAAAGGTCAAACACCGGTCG and report it.
-0.0315

Find the recorded PBM binding z-score belonging to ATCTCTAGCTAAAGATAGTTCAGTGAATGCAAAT and report it.
1

Find the recorded PBM binding z-score belonging to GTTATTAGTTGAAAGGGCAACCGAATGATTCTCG and report it.
1.34

Find the recorded PBM binding z-score belonging to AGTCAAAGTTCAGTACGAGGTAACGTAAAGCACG and report it.
0.68

Find the recorded PBM binding z-score belonging to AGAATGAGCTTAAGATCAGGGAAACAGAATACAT and report it.
0.133

Find the recorded PBM binding z-score belonging to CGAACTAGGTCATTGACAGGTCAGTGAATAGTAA and report it.
2.07

Find the recorded PBM binding z-score belonging to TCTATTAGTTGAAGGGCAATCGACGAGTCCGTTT and report it.
-0.193

Find the recorded PBM binding z-score belonging to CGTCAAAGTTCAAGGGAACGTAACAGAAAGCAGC and report it.
0.481

Find the recorded PBM binding z-score belonging to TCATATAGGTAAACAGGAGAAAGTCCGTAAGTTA and report it.
0.715

Find the recorded PBM binding z-score belonging to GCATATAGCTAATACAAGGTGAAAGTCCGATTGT and report it.
0.87

Find the recorded PBM binding z-score belonging to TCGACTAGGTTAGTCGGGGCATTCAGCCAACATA and report it.
-0.552

Find the recorded PBM binding z-score belonging to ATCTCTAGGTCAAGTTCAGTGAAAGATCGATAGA and report it.
2.13

Find the recorded PBM binding z-score belonging to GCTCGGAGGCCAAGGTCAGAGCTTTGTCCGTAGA and report it.
-1.23

Find the recorded PBM binding z-score belonging to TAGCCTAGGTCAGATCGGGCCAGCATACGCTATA and report it.
-0.988

---

Test system: LXRb:RXRa (NR concentration 270 nM, RXRa partner concentration 90 nM)
assay-method-text: PBM binding z-score (relative to random genomic background probes); higher = stronger binding; sequences stand for … in GC…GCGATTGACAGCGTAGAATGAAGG
Reported PBM binding z-score maps to class as: class 0: < 0.5; class 1: ≥ 0.5 and < 2; class 2: ≥ 2

Band assignment needed for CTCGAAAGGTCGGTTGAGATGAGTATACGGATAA please.
class 1

Band assignment needed for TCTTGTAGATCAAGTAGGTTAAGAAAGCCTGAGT please.
class 0

Band assignment needed for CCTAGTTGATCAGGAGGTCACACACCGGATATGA please.
class 2

Band assignment needed for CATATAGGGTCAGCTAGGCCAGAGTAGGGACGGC please.
class 2

Band assignment needed for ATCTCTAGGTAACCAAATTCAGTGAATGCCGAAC please.
class 0

Band assignment needed for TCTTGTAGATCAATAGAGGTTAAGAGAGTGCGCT please.
class 1

Band assignment needed for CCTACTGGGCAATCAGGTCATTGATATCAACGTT please.
class 1

Band assignment needed for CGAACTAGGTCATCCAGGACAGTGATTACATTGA please.
class 2

Band assignment needed for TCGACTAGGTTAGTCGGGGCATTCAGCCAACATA please.
class 0

Band assignment needed for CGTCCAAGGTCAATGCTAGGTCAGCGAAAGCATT please.
class 2

Band assignment needed for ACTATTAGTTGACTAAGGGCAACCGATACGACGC please.
class 1

Band assignment needed for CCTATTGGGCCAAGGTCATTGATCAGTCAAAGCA please.
class 2

Band assignment needed for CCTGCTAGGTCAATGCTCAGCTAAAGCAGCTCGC please.
class 1

Band assignment needed for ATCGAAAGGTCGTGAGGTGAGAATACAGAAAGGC please.
class 2

Band assignment needed for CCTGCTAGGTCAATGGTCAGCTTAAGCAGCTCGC please.
class 1

Band assignment needed for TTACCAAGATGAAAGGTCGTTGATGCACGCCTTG please.
class 1

Band assignment needed for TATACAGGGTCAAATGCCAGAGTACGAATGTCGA please.
class 2

Band assignment needed for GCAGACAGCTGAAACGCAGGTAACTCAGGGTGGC please.
class 0

Band assignment needed for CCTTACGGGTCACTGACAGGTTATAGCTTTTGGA please.
class 2

Band assignment needed for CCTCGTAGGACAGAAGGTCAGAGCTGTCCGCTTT please.
class 1

Band assignment needed for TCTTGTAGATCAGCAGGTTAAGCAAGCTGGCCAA please.
class 0

Band assignment needed for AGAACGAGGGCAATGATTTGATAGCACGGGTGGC please.
class 0

Band assignment needed for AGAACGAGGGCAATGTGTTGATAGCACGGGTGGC please.
class 0

Band assignment needed for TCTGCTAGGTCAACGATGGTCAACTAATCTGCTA please.
class 2

Band assignment needed for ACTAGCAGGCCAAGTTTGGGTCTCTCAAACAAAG please.
class 0
